OUTCOME_MEASURE: melting point (°C)

In [3]: df
Out[3]:
                                   compound  outcome_measure  recorded_measurement
0  Cc1ccc2nc(C=Cc3ccc(N(C)C)cc3)cc(C(=O)O)c2c1 [Compound 3b]    melting point                   275
1  CN(C)c1ccc(C=Cc2cc(-c3nnc(N)s3)c3cc(Br)ccc3n2)cc1 [Compound 4a]    melting point                   223
2  Cc1ccc2nc(C=Cc3ccc(N(C)C)cc3)cc(C(=O)Oc3ccc(C=O)cc3)c2c1 [Compound 6b]    melting point                   248
3  Cc1ccc2nc(C=Cc3ccc(N(C)C)cc3)cc(C(=O)NNc3ccccc3)c2c1 [Compound 7b]    melting point                   228
4  CN(C)c1ccc(C=Cc2cc(C(=O)NNc3ccccc3)c3cc(Br)ccc3n2)cc1 [Compound 7a]    melting point                   232
5  Cc1ccc2nc(C=Cc3ccc(N(C)C)cc3)cc(-c3nnc(N)s3)c2c1 [Compound 4b]    melting point                   226
6  CN(C)c1ccc(C=Cc2cc(C(=O)Oc3ccc(C=O)cc3)c3cc(Br)ccc3n2)cc1 [Compound 6a]    melting point                   242
